All figures here come from ChEMBL document CHEMBL2396521.

Tested on: Aorta
ASSAY_NAME: Vasodilatory activity in Wistar rat endothelium-intact aorta assessed as reduction of acetylcholine-induced vasoconstriction at 100 uM
Assay type: functional, tissue-based
The source made the active and inactive calls. The rule behind the calls is not given here.
Write down one outcome, taken from y for active, n for inactive

INSERT INTO assay_data (smiles_notation, label_value) VALUES
  ('N/C(=N\OCc1ccc(NC(=O)CC[C@H](N)C(=O)O)cc1)NCCc1ccccc1', 'y'),
  ('CN(CCCC(=O)O)c1noc(CC[C@H](N)C(=O)O)n1', 'n'),
  ('CN(CCCC(=O)O)/C(N)=N/O', 'y'),
  ('N=C(NO)NCCC[C@H](N)C(=O)O', 'y');

Next, consider the following molecule.
Prompt: Tell me the recorded outcome of this test for CN(CCCC(=O)O)/C(=N\O)NC(=O)CC[C@H](N)C(=O)O .
Completion: n
